Hello, the source for this data is the supplement of paper PMC10567573, in case you need it.

B1: DLC1 (parent)
chain: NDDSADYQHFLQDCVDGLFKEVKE

variants of: B1; assay: protein stability index of a GFP-peptide fusion (GPS, HEK-293T) (PSI 1-6); higher = more stable; details: c terminus: a fixed tail appended;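 note: lentivirally expressed fusions sorted by FACS into six bins by GFP to DsRed ratio, PSI derived from sequencing read proportions per bin multiplied by bin number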
Record 1 (yes) whenever protein stability index is at 4 or higher; record 0 (no) when lower.

Use the examples below as a reference point.
| mut | group |
| --- | --- |
| F10G | 1 (yes) |
| E21L | 0 (no) |
| Q12T | 1 (yes) |
| H9I | 0 (no) |
| L18D | 1 (yes) |
| Q12V | 0 (no) |

### Prompt Determine whether this variant has protein stability index no lower than 4: `V15Q`
### Response 1 (yes)

### Prompt Determine whether this variant has protein stability index no lower than 4: `G17D`
### Response 1 (yes)

### Prompt Determine whether this variant has protein stability index no lower than 4: `A5P`
### Response 0 (no)

### Prompt Determine whether this variant has protein stability index no lower than 4: `S4F`
### Response 0 (no)

### Prompt Determine whether this variant has protein stability index no lower than 4: `H9A`
### Response 0 (no)
